# assay_protocol: Inhibition of Neuronal Nitric oxide synthase enzyme (nNOS)
Where a SMILES comes first, the peptide text is derived from it. [ ]: non-standard residue; d: D form. dArg(NO2) = N=C(NCCC[C@@H](N)C(=O)O)N[N+](=O)[O-]
measured_parameter: Ki (µM)
Enter your answer as a number in µM; do not include the unit.

Look over these answered cases.
INSERT INTO results (molecule, measured_parameter, value_units, obs_value) VALUES
  ('COC(=O)[C@@H](Cc1ccccc1)NC(=O)[C@@H](N)CCCN=C(N)N[N+](=O)[O-]', 'Ki', 'µM', 92),
  ('N=C(NCCC[C@@H](NC(=O)[C@H](N)Cc1ccccc1)C(=O)O)N[N+](=O)[O-] (H-[dF]-[dArg(NO2)]-OH)', 'Ki', 'µM', 17),
  ('COC(=O)[C@@H](Cc1ccccc1)NC(=O)[C@H](N)CCCNC(=N)N[N+](=O)[O-]', 'Ki', 'µM', 150);

Exercise: Look up and state reported Ki for `COC(=O)[C@H](Cc1ccccc1)NC(=O)[C@@H](N)CCCN=C(N)N[N+](=O)[O-]`
Key: 290

---

# assay_protocol: Inhibition of Neuronal Nitric oxide synthase enzyme (nNOS)
Where a SMILES comes first, the peptide text is derived from it. [ ]: non-standard residue; d: D form. The star is where a group is joined. Arg(NO2) = N=C(NCCC[C@H](N)C(=O)O)N[N+](=O)[O-]; OBn = c1ccc(CO*)cc1
measured_parameter: pKi
Give only the number. pKi is defined as minus log10 of concentration in molar units.

Look over these answered cases.
INSERT INTO measurements (compound, measured_parameter, obs_value) VALUES
  ('COC(=O)[C@@H](CCCN=C(N)N[N+](=O)[O-])NC(=O)[C@@H](N)Cc1ccccc1', 'pKi', 4.05),
  ('NC(=NCCC[C@H](NC(=O)[C@@H](N)Cc1ccccc1)C(=O)OCc1ccccc1)N[N+](=O)[O-] (H-Phe-[Arg(NO2)]-OBn)', 'pKi', 3.96),
  ('COC(=O)[C@@H](CCCN=C(N)N[N+](=O)[O-])NC(=O)[C@H](N)Cc1ccccc1', 'pKi', 3.40);

Exercise: Look up and state reported pKi for `NC(=NCCC[C@H](N)C(=O)N[C@@H](Cc1ccccc1)C(=O)O)N[N+](=O)[O-]`
Key: 4.74

Exercise: Look up and state reported pKi for `NC(=NCCC[C@H](N)C(=O)N[C@@H](Cc1ccccc1)C(=O)OCc1ccccc1)N[N+](=O)[O-]`
Key: 4.26

Exercise: Look up and state reported pKi for `COC(=O)[C@H](CCCN=C(N)N[N+](=O)[O-])NC(=O)[C@@H](N)Cc1ccccc1`
Key: 3.43

From: BindingDB's records for doi:10.1021/jm970200u
